For each record, write down the corresponding Max Overall Kidney Histology Score.
protocol.text: Nephrotoxicity in a mouse model (kidney histology score)
Format: in vivo
assay.conditions: mice, subcutaneous 12 mg base/kg, 6 doses in one day every 2 h; kidney ~20 h after last dose; product of percentage score and grade score
Positions of bridges follow the written chain, without caps; N, C: chain ends. Non-standard residues stand in square brackets, D forms with d. Residues, ends and D or L forms follow the SMILES beside them. *: point of attachment. X4 = O=C(c1ccc(Cl)c(Cl)c1)*; X3 = O=C(c1ccc(Cl)cc1Cl)*; Dab = NCC[C@H](N)C(=O)O; Abu = CC[C@H](N)C(=O)O; Dap = NC[C@H](N)C(=O)O; PhAc = O=C(Cc1ccccc1)*
Give bare numbers.

Recorded Max Overall Kidney Histology Score, per entry:
compound | endpoint.value
CC[C@@H]1NC(=O)[C@@H](CC(C)C)NC(=O)[C@H](CCN)NC(=O)[C@@H](NC(=O)[C@H](CN)NC(=O)[C@@H](NC(=O)[C@H](CCN)NC(=O)Cc2ccccc2)[C@@H](C)O)CCNC(=O)[C@H]([C@@H](C)O)NC(=O)[C@H](CCN)NC(=O)[C@H](CCN)NC1=O [Compound 78] (PhAc-[Dab]T[Dap][Dab][Dab][dL][Abu][Dab][Dab]T; lactam 4-C) | 0.0
CC[C@@H]1NC(=O)[C@@H](CC(C)C)NC(=O)[C@H](CCN)NC(=O)[C@@H](NC(=O)[C@H](CN)NC(=O)[C@@H](NC(=O)[C@H](CCN)NC(=O)c2ccc(Cl)cc2Cl)[C@@H](C)O)CCNC(=O)[C@H]([C@@H](C)O)NC(=O)[C@H](CCN)NC(=O)[C@H](CCN)NC1=O [Compound 82] (X3-[Dab]T[Dap][Dab][Dab][dL][Abu][Dab][Dab]T; lactam 4-C) | 0.0

Now for another entry.
query: Recorded Max Overall Kidney Histology Score for CC[C@@H]1NC(=O)[C@@H](CC(C)C)NC(=O)[C@H](CCN)NC(=O)[C@@H](NC(=O)[C@H](CN)NC(=O)[C@@H](NC(=O)[C@H](CCN)NC(=O)c2ccc(Cl)c(Cl)c2)[C@@H](C)O)CCNC(=O)[C@H]([C@@H](C)O)NC(=O)[C@H](CCN)NC(=O)[C@H](CCN)NC1=O [Compound 71] (X4-[Dab]T[Dap][Dab][Dab][dL][Abu][Dab][Dab]T; lactam 4-C) , please?
result: 0.0

Source of measurements: patent USRE48335E1
